All values here come from patent US20130266517A1.

Listed below: Kd values for each entry.
TARGET UNDER TEST: alpha-synuclein (natural human wildtype alpha-synuclein) (human, UniProt P37840 1-140)
METHOD NOTES: Biacore (SPR) full kinetic analysis
Please reply with the bare figure in nM and do not write the unit itself.

Worked examples, 2 binders total:
What value of Kd has been recorded for this entry: Humanized 1H7 H3L3 (Hu1H7VHv3-Hu1H7VLv3) (antibody, V domains shown) VH: QVQLVQSGAEVKKPGASVKVSCKASGYTFTSYYIHWVRQAPGQGLEWMGWIYPGSGNTKYSEKFKGRATMTADTSTSTAYMELRSLRSDDTAVYYCARDGCYGFAYWGQGTLVTVSS VL: DIQLTQSPSSLSASVGDRVTITCKASQSVDYDGDSYMNWYQQKPGKAPKFLICAASNLESGVPSRFSGSGSGTDFTLTISSLQPEDFATYYCQQSNEDPFTFGQGTKLEIK 9

What value of Kd has been recorded for this entry: Humanized 1H7 H3L1 (Hu1H7VHv3-Hu1H7VLv1) (antibody, V domains shown) VH: QVQLVQSGAEVKKPGASVKVSCKASGYTFTSYYIHWVRQAPGQGLEWMGWIYPGSGNTKYSEKFKGRATMTADTSTSTAYMELRSLRSDDTAVYYCARDGCYGFAYWGQGTLVTVSS VL: DIQLTQSPSSLSASVGDRVTITCKASQSVDYDGDSYMNWYQQKPGKAPKFLICAASNLESGVPSRFSGSGSGTDFTLTISSLQPEDAATYYCQQSNEDPFTFGQGTKLEIK 12

More entries:
What value of Kd has been recorded for this entry: Humanized 1H7 H5L1 (Hu1H7VHv5-Hu1H7VLv1) (antibody, V domains shown) VH: QVQLVQSGAEVKKPGASVKVSCKASGYTFTSYYIHWVRQAPGQGLEWMGWIYPGSGNTKYSEKFKGRATMTADTSTSTAYMELRSLRSDDTAVYYCARDGSYGFAYWGQGTLVTVSS VL: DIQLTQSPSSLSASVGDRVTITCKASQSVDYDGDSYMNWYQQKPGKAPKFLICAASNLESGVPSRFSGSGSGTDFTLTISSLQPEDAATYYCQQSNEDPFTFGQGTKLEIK 64
